Taken from patent US20220041711A1.

- assayedTarget: T1, human LAIR-1-ECD (human, UniProt Q6GTX8 22-165)
- T1 construct: Recombinant, expressed in mammalian cells; also called extracellular region of human LAIR-1
- T1 chain: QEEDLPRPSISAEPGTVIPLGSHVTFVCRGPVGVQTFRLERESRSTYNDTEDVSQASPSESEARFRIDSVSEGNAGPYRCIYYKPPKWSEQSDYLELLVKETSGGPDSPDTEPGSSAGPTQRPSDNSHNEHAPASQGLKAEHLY
- measurementDescription: SPR (Biacore) as in Example 2
readoutType: pKd
Quick note: pKd means taking -log10 of the concentration in moles per liter.

binder	valueReported
anti-LAIR-1 antibody ch47H1 (antibody, V domains shown, The prefix 'ch' is not defined; detected with anti-human Fc secondary antibody) VH: EVQLVETGGGLVQPKGSLKLSCAASGFTFNINAMNWVRQAPGKGLEWVARIRTKNNNYATFYADSVKDRFTISRDDSQSMLYLQMNNLKTDDTAMYYCVRDRAGFFAYWGQGTPVTVSA VL: DIQMTQSPASQSASLGESVTITCLASQTIGTWLGWYRQKPGKSPQLLIYAATSLADGVPSRFSGSGSGTKFSFKISSLQAEDFVIYYCQQLYSTPLTFGSGTKLEIK	9.47

Return reported pKd; argument: humanized anti-LAIR-1 antibody Hz62G10.v1 (antibody, human IgG1, kappa, N297G, V domains shown, Humanized 62G10) VH: EVQLVESGGGLVKPGGSLRLSCAASGFTFNINAMNWVRQAPGKGLEWVARIRTKNNNFATYYADSVKDRFTISRDDSKNTLYLQMNSLKTEDTAVYYCVRGPYFDYWGQGTLVTVSS VL: DIQMTQSPSSLSASVGDRVTITCLASQTIGTWLAWYQQKPGKAPKLLIYAATSLADGVPSRFSGSGSGTDFTLTISSLQPEDFATYYCQQLYSTPYTFGGGTKVEIKR
8.96

Now consider humanized anti-LAIR-1 antibody Hz47H1.v4 (antibody, human IgG1, kappa, N297G, V domains shown, Humanized 47H1 with reengineered VH CDR2 and VL CDR2) VH: EVQLVESGGGLVQPGGSLRLSCAASGFTFNINAMNWVRQAPGKGLEWVARIRTKNYNYATFYADSVKDRFTISRDDSKNSLYLQMNSLKTEDTAVYYCVRDRAGFFAYWGQGTTVTVSS VL: DIQMTQSPSSLSASVGDRVTITCLASQTIGTWLGWYQQKPGKAPKLLIYAATSLAEGVPSRFSGSGSGTDFTLTISSLQPEDFATYYCQQLYSTPLTFGGGTKVEIKR .
9.59

Now consider anti-LAIR-1 antibody ch62G10 (antibody, V domains shown, The prefix 'ch' is not defined) VH: EVQLVETGGGLVQPKGSLKLSCATSGFTFNINAMNWVRQAPGKGLEWVARIRTKNNNFATYYADSVKDRFTISRDDSQSMLYLQMNNLKTEDTAMYYCVRGPYFDYWGQGTTLTVSS VL: DIQMTQSPASQSASLGESVTITCLASQTIGTWLAWYQQKPGKSPQLLIYAATSLADGVPSRFSGSGSGTKFSFKISNLQAEDFVTYYCQQLYSTPYTFGGGTKLEIK .
9.05
